- System: human red blood cells (hRBC)
- Assay overview: Hemolysis of human red blood cells
- Format: cell-based
- Experimental setup: hRBC, 100 μM, 30 min at 37° C.
Square brackets hold non-standard residues; d marks the D form. Peptide text beside a SMILES is read from it.

- Compound: "CC(C)C[C@H](NC(=O)[C@@H](CC(C)C)NC(=O)[C@H](CCCCN)NC(=O)[C@@H](CC(C)C)NC(=O)[C@H](CC(C)C)NC(=O)[C@@H](CC(C)C)NC(=O)[C@@H](N)CCCCN)C(=O)N[C@@H](CCCCN)C(=O)O [Peptide 29, [D]-L^2,4,6-K3L5] (H-K[dL]L[dL]K[dL]LK-OH)"
  % hemolysis at 100 μM / %: 0
- Compound: "CC(C)C[C@H](NC(=O)[C@@H](CC(C)C)NC(=O)[C@H](CC(C)C)NC(=O)[C@@H](CC(C)C)NC(=O)[C@@H](N)CCCCN)C(=O)N[C@@H](CCCCN)C(=O)O [Peptide 28, [D]-L^2,4-K2L4] (H-K[dL]L[dL]LK-OH)"
  % hemolysis at 100 μM / %: 0
- Compound: "CC(C)C[C@H](NC(=O)[C@H](CC(C)C)NC(=O)[C@@H](CC(C)C)NC(=O)[C@@H](CC(C)C)NC(=O)[C@H](CC(C)C)NC(=O)[C@@H](N)CCCCN)C(=O)N[C@@H](CCCCN)C(=O)N[C@H](CC(C)C)C(=O)N[C@@H](CC(C)C)C(=O)N[C@H](CC(C)C)C(=O)N[C@@H](CC(C)C)C(=O)N[C@@H](CCCCN)C(N)=O [Peptide 22, [D]-L^3,4,8,10-K3L9] (H-KL[dL][dL]LLK[dL]L[dL]LK-NH2)"
  % hemolysis at 100 μM / %: 58
- Compound: "CC(C)[C@H](NC(=O)[C@H](CCCCN)NC(=O)[C@H](NC(=O)[C@H](NC(=O)[C@@H](NC(=O)[C@@H](N)CCCCN)C(C)C)C(C)C)C(C)C)C(=O)N[C@H](C(=O)N[C@@H](C(=O)N[C@@H](CCCCN)C(=O)N[C@@H](C(=O)N[C@H](C(=O)N[C@@H](CCCCN)C(N)=O)C(C)C)C(C)C)C(C)C)C(C)C [Peptide 34, [D]-V^3,4,8,10-K4V8] (H-KV[dV][dV]KVV[dV]K[dV]VK-NH2)"
  % hemolysis at 100 μM / %: 0
- Compound: "CC(C)C[C@H](NC(=O)[C@H](CC(C)C)NC(=O)[C@@H](CC(C)C)NC(=O)[C@H](N)CCCCN)C(=O)N[C@H](CCCCN)C(=O)N[C@H](CC(C)C)C(=O)N[C@H](CCCCN)C(=O)N[C@@H](CC(C)C)C(=O)N[C@H](CCCCN)C(=O)N[C@@H](CC(C)C)C(=O)N[C@H](CC(C)C)C(=O)N[C@H](CCCCN)C(N)=O [Peptide 27, [D]-K^1,5,7,9,12L^2,6,11-K5L7] (H-[dK][dL]LL[dK][dL][dK]L[dK]L[dL][dK]-NH2)"
  % hemolysis at 100 μM / %: 0
- Compound: "C[C@H](NC(=O)[C@H](C)NC(=O)[C@H](CCCCN)NC(=O)[C@@H](C)NC(=O)[C@@H](C)NC(=O)[C@H](C)NC(=O)[C@@H](N)CCCCN)C(=O)N[C@H](C)C(=O)N[C@@H](CCCCN)C(=O)N[C@H](C)C(=O)N[C@@H](C)C(=O)N[C@@H](CCCCN)C(N)=O [Peptide 33, [D]-A^3,4,8,10-K4A8] (H-KA[dA][dA]KAA[dA]K[dA]AK-NH2)"
  % hemolysis at 100 μM / %: 0
